Source of measurements: patent US20210355104A1

# tested target: Adenosine A2A receptor (Homo sapiens, UniProt P29274)
# Sequence (P29274 whole entry): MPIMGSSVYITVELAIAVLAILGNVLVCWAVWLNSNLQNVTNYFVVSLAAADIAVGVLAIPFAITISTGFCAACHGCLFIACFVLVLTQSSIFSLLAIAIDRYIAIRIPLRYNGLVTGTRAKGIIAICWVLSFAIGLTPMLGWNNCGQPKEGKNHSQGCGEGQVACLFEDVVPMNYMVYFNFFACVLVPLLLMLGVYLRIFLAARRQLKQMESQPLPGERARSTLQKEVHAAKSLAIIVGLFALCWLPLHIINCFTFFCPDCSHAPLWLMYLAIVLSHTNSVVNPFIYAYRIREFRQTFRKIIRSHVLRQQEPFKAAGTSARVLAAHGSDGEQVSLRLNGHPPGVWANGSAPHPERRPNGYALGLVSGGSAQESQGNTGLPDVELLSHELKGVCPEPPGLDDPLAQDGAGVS
# experimental protocol: cAMP assay in 293A cells stably expressing the adenosine A2A receptor (CGS21680 stimulation, HTRF)
# Type: cell-based
# Design: expressed in transfected cells; host or cells: 293A cells (Invitrogen, Cat# R705-07) infected with A2A-expressing lentivirus (custom packaged by Biosettia), puromycin selected
# experimental context: 293A-A2AR cells, 0.1% BSA, 8 nM CGS; read-out: cAMP (nM) 0.1% BSA, 8 nM CGS
readout type: IC50 (nM)

>>> measured_result("Cc1cc(-c2c(OCc3nc(S(C)(=O)=O)cn3C(C)C)nc(N)nc2-c2ccc(F)cc2)cc(C(F)F)n1")
7.3
>>> measured_result("Cc1cc(-c2c(O)nc(N)nc2-c2ccc(F)cc2)cc(C(F)F)n1")
10

P = Cc1cc(-c2c(OCc3nc(C#N)cn3C(C)C)nc(N)nc2-c2ccc(F)cc2)cc(C(F)F)n1
Q = CCn1ccc(COc2nc(N)nc(-c3ccc(F)cc3)c2-c2cc(C)nc(C(F)F)c2)n1
R = Cc1cc(-c2c(OCCOc3cccc(N(C)CCO)n3)nc(N)nc2-c2ccc(F)cc2)cc(C(F)F)n1
S = Cc1cc(-c2c(OCc3nccn3C(C)C(=O)O)nc(N)nc2-c2ccc(F)cc2)cc(C(F)F)n1 (stereo not drawn)
Asked: Arrange the 4 compounds from largest to smallest IC50. Answer by naming the labels in the order asked.
Given back: S, P, R, Q
